Target of assay: recombinant human ALX receptor (Homo sapiens)
Experiment description: Intracellular calcium measurements (FLIPR), ALX receptor agonistic activity
Assay context: HEK293-hALXR-Gα16 cells, normalized to WKYMVm 10 nM
Experimental endpoint: EC50 (nM)

Below, 5 compounds whose answers are already recorded.
[
  {
    "Compound string": "CC(=O)c1ccc(Cn2ncc(NC(=O)c3ncoc3-c3ccccc3)n2)s1",
    "Value observed": 2.8
  },
  {
    "Compound string": "CC(=O)c1cccc(Cn2ncc(NC(=O)c3ncoc3-c3ccccc3)n2)n1",
    "Value observed": 203
  },
  {
    "Compound string": "COCCc1cccc(-c2ocnc2C(=O)Nc2cnn(Cc3ccc(C(C)=O)o3)n2)c1",
    "Value observed": 2.1
  },
  {
    "Compound string": "CC(=O)CCCCn1ncc(NC(=O)c2ncoc2-c2ccccc2)n1",
    "Value observed": 1.6
  },
  {
    "Compound string": "CC(=O)c1ccc(Cn2ncc(NC(=O)c3ncoc3-c3cccc(N(C)C)c3)n2)o1",
    "Value observed": 1.9
  }
]

I. CC(=O)c1ccnc(Cn2ncc(NC(=O)OCc3ccccc3Cl)n2)c1
II. COc1cc(-c2ocnc2C(=O)Nc2cnn(Cc3ccc(C(C)=O)o3)n2)ccc1C
III. CC(=O)c1ccc(Cn2ncc(NC(=O)c3nc(C)sc3-c3cccc(C)c3)n2)o1
// ranking: key=EC50, reverse=True A ranking is expressed here by listing the labels in the requested order.
III, II, I
(III: 98 nM, II: 53 nM, I: 21 nM)

###

Target of assay: recombinant human ALX receptor (Homo sapiens, UniProt P25090)
Sequence (P25090 1-351): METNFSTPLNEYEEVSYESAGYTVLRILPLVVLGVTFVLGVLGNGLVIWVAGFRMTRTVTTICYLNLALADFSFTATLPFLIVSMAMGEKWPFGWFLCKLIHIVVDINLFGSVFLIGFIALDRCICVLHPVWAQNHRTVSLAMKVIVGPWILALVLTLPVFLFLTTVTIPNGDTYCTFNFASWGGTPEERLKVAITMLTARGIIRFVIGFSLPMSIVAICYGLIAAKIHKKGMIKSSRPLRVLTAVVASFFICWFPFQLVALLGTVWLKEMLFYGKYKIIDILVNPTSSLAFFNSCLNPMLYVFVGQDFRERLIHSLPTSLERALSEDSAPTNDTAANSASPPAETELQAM
Experiment description: Intracellular calcium measurements (FLIPR), ALX receptor agonistic activity
Assay context: HEK293-hALXR-Gα16 cells, normalized to WKYMVm 10 nM
Procedure: The ALX receptor agonistic activity of the compounds of formula (I) is determined in accordance with the following experimental method. Intracellular Calcium Measurements: Cells expressing recombinant human ALX receptor and the G-protein Gα16 (HEK293-hALXR-Gα16) were grown to 80% confluency in Growing Medium (GM). […] Changes in fluorescence were monitored before and after the addition of test compounds at lex=488 nm and lem=540 nm. […]
pEC50: −log10 of the molar value.
Experimental endpoint: pEC50

Consider the worked cases shown below.
[
  {
    "Molecule": "CC(=O)c1cc(Cn2ncc(NC(=O)c3ncoc3-c3ccccc3)n2)cs1 [Example 49]",
    "Target of assay": "recombinant human ALX receptor (Homo sapiens, UniProt P25090)",
    "pEC50": 7.24
  },
  {
    "Molecule": "CC(F)(F)CCCCn1ncc(NC(=O)c2ncoc2-c2ccccc2)n1 [Example 36]",
    "Target of assay": "recombinant human ALX receptor (Homo sapiens, UniProt P25090)",
    "pEC50": 8.31
  },
  {
    "Molecule": "CC(=O)c1ncc(Cn2ncc(NC(=O)c3nc(C)oc3-c3cccc(F)c3)n2)o1 [Example 99]",
    "Target of assay": "recombinant human ALX receptor (Homo sapiens, UniProt P25090)",
    "pEC50": 8.09
  },
  {
    "Molecule": "CC(=O)c1cccc(Cn2ncc(NC(=O)OCc3ccccc3Cl)n2)c1 [Example 35]",
    "Target of assay": "recombinant human ALX receptor (Homo sapiens, UniProt P25090)",
    "pEC50": 8.07
  }
]

1. CC(=O)c1ccc(Cn2ncc(NC(=O)c3ncoc3-c3cccc(C(F)(F)F)n3)n2)o1 [Example 105]
2. COCCc1nc(C(=O)Nc2cnn(Cc3ccc(C(C)=O)o3)n2)c(-c2ccccc2)o1 [Example 93]
Which shows the larger pEC50 value: 1 or 2 ? Your answer should be the label attached to the chosen record.
2
(2: 8.28, 1: 7.44)

P. CS(=O)(=O)c1ccc(Cn2ncc(NC(=O)c3ncoc3-c3ccccc3)n2)o1 [Example 37]
Q. CC(=O)c1ccc(Cn2ncc(NC(=O)c3nc(C4CC4)oc3-c3ccccc3)n2)o1 [Example 30]
R. CC(=O)c1nc(Cn2ncc(NC(=O)OCc3ccccc3Cl)n2)co1 [Example 104]
Arrange these molecules by their pEC50, starting with the largest number. API: response body holds the labels in the requested order.
Q, R, P

I. CC(=O)c1ccc(Cn2ncc(NC(=O)/C=C/c3cccc(OC(F)(F)F)c3)n2)o1 [Example 8]
II. CC(=O)c1coc(Cn2ncc(NC(=O)c3ncoc3-c3ccccc3)n2)n1 [Example 91]
III. CC(=O)c1cnc(Cn2ncc(NC(=O)OCc3ccccc3Cl)n2)s1 [Example 71]
IV. CC(=O)c1ccc(Cn2ncc(NC(=O)c3nc(C)oc3-c3cccc(C(F)(F)F)c3)n2)o1 [Example 26]
Please list these molecules in decreasing order of pEC50. // rank by listing labels in the order requested
II, I, IV, III
